- Test system: ACHN renal
- test_details: NCI tumour cell line growth inhibition, 48 h
For each of the molecules below, state its TGI.

Request: For Nc1nc(SN=Nc2ccc(S(N)(=O)=O)cc2)c2[nH]cnc2n1 , what is its reported TGI?
Response: > 100 µM

Request: I'd like to know its TGI. The molecule in question is COC(=O)C1=CC(=O)OC1(OO)c1ccccc1 (stereo not given)
Response: > 100 µM

Request: I'd like to know its TGI. The molecule in question is Cc1cc(C)c(C2[C@H]3C(=O)N(c4ccc(Cc5ccc(N6C(=O)[C@@H]7ON(c8ccccc8)C(c8c(C)cc(C)cc8C)[C@@H]7C6=O)cc5)cc4)C(=O)[C@H]3ON2c2ccccc2)c(C)c1 (stereo not given in full)
Response: > 100 µM

Request: Please give the measured TGI for this molecule: COc1ccc(OC)c2c(/C=C/c3ccc(N(C)C)cc3)ccnc12
Response: > 10 µM

Request: Recorded TGI of CCOC(=O)CNC(=O)c1ccccc1Nc1ccnc(C(F)(F)F)c1 , please.
Response: > 100 µM
